System: THRa:RXRa (NR concentration 90 nM, RXRa partner concentration 90 nM)
Assay: PBM binding z-score (relative to random genomic background probes); higher = stronger binding; sequences stand for … in GC…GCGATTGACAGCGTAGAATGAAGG
Output: class label from PBM binding z-score. Mapping: bin A = under 1, bin B = from 1 up to 3, bin C = 3 and over

Sequence Chain	Class Label
TCGAGTAGGGTACCAATGGGGCATTCAGCTTTCT	bin A
TCTCGGCGGACACGAAAGGTCAGAGCTCGACATC	bin B
ATCTCTAGGTAAAATTTCAGTGAATCCCGAGGAT	bin A
CCTAGCAGGCCATTCTGGGTCACTCAAGGCTTGA	bin C
GCTTGTAGAGCAAGGTTAAGAAAGACTAAGCTAA	bin A
GCGACTGGGGCAGCAGCAGGTTACCATAACTTAA	bin A
CCTACTGGGCCAAAGGTCGTTGATTCCAATGCTC	bin B
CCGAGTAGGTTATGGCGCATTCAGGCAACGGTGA	bin A
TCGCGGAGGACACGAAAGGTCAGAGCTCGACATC	bin C
ATATGTAGGTTAAGGGTTATTCAGGTTGGTTCGC	bin B
TCATTTAGGTAATACAGGTGAAAGTCGGCATCTA	bin B
CAAACTAGATCACCGGAAGGTCAAAGTCCGCATG	bin B
CAACCTAGGTCAAAGGTCAAAGTCGAGCCAACCA	bin C
ATCTCTAGGGAAGACTCAGTTCAGTGAAGAACGC	bin A
ACTAGTTGGGCAGCTGAGGTCACACACAATTCGG	bin C
GCGACTGGGGCAAAACAGGTTACCATAAGGTTGG	bin B
ATCGAAAGGTCGACGAGGTGTGTATACACCGTTT	bin B
GCTAGCAGGCCATTTGGGTCTCTCAATGACGGGC	bin A
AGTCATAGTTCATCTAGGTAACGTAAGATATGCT	bin B
TCATATAGGTAAACAGGGGAAAGTCCGTAAGTTA	bin A
AATACAGGGTCATCGTAGGCCGGAGTACGCACAG	bin C
TCTTGTAGAGCAAAGGTTAAGAAAGCCGAAGCCT	bin B
CAAACTAGGTCAGGGTCAAAGTCGGTTTGTGCCA	bin C
CCTTACGGGACACTGACAGGTTATAGCATTTGGA	bin A
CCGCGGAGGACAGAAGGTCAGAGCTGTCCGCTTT	bin B
CATACAGGGTCAGCTAGGCCACAGTAGGGACGGC	bin C
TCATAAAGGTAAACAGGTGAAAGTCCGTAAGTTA	bin B
ACTATTAATTGAGACGAGGGCAACCGATAGGTTG	bin B
TCGAGTAGGTTAGGGGCGTTCAGAATGGCGTCGA	bin A
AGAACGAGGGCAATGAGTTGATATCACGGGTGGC	bin B
CGAACTAGGTCAGAACAGGTCAGTGAAGGATGAT	bin C
AATACAGAGTCATCGTAGGCCAGAGTACGCACAG	bin B
CAAACTAGGTCATCCAGGACAGTGAATACATTGA	bin C
GCTTGTAGATCAAAGTTAAGAAAGACTAAGCTAA	bin A
CCAGTCAGGTGAAAGGTAACTCAGTCTGGTACGC	bin B
GCGACTGGGGCATCAGCAGGTTACTATAACTTAA	bin A
GCTGCTAGGTCCGGTTGGTCAGCTAACGGGTACG	bin A
AGTCAAAGTCCAGGACGAGGTAACGTAAAGCACG	bin B
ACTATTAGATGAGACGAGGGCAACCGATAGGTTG	bin B
GCTTACGGGTCAAAGGTTAGAGCATGAATAGAAT	bin C
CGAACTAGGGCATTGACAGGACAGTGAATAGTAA	bin A
CGTCAAAGTTCAACTAAGGAAACGTAAAGCACGC	bin C
CAAACTAGGTTACAGAGGTCAAAGTCCGTGCGTA	bin C
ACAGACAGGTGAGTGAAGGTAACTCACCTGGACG	bin B
TAGCCTTGGTCATGCGGGCCAGTATAGTGTCGGC	bin A

###

System: RXRa DBDmut IVT, anti-RXR (DBD mutation: RXRa K156A/R161A, NR concentration 90 nM)
Assay: PBM binding z-score (relative to random genomic background probes); higher = stronger binding; sequences stand for … in GC…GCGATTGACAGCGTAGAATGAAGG
Use 1 as the dividing line for PBM binding z-score, with the line itself on the Y side and lower values as N.

Sequence Chain	Class Label
ATCTCTAGGCAAAAGTTCAGTGAATCCCGAGGAT	N
CCGACTGGGGCATAAGGTCACCATAAGCCAGCCC	N
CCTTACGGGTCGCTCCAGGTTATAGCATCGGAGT	N
CTCGAAAGGTCGTGCTCAGTTGAGTATACCAAAC	Y
GATACAGGGTCAAGGGCAGAGTACGCGTATTGAT	Y
ACAGACAGGTGAGCGAAGGTAACTCAGCTGGACG	N
ATTCGGAGGACAAAGGTCAGAGCTACGCCAGTGA	N
TGAATGAGGTTAAAGCTCAGGGAACGTGGCGTCG	Y
CATACAGGGTCAGCTAGGCCAGAGTTGGGACGGC	Y
GGAACGAGGGCTTTCGAGTTGATAGCATGGCGAT	N
TCTAGTTGGTCAGAGGTCACACACTCGAAATGCG	Y
CGAACTAGGTCAAGAACAGTGAATCTCCGCACGC	Y

###

Tested on: RARg homodimer (NR concentration 270 nM)
Experiment: PBM binding z-score (relative to random genomic background probes); higher = stronger binding; sequences stand for … in GC…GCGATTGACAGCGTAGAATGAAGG
Kind request: treat 0.3 as inclusive, so PBM binding z-score at 0.3 or higher is TRUE, anything lower is FALSE.

Sequence Chain	Class Label
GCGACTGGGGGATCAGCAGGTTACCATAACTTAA	TRUE
GCAGACAGGTGTAACGCAGGTAACTCAGGGTGGC	FALSE
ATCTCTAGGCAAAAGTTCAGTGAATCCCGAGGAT	TRUE
ACCTCTAGGTAAGACTCAGTTCAGTGAAGAACGC	FALSE
CCTCGGAGGACAGAACGTCAGAGCTGTCCGCTTT	FALSE
TCTTGTAGATCAACAGGGGGTTAAGAAAGATCGA	TRUE

###

Tested on: PPARg DBDmut:RXRa IVT, anti-PPARg (DBD mutation: PPARg1 K132A/R137A, NR concentration 270 nM, RXRa partner concentration 90 nM)
Assay: PBM binding z-score (relative to random genomic background probes); higher = stronger binding; sequences stand for … in GC…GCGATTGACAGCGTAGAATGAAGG

Sequence Chain	PBM binding z-score
ACTATTAGGTGACTTAGGGCAACCGATACGACGC	1.48
CGTCAAAGTTCCACTAAGGTAACGTAAAGCACGC	-0.504
CCTACTGGGCCATCACGTCATTGATATCAACGTT	0.399
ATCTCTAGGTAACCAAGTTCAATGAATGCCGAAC	0.675
AGAATTAGGTTATACGTAGATCAGGGAAGAAAGT	1.46
GACACAGGGTCAAGGCCAGAGTACGCGTATTGAT	0.42
ACTTACGGGACAACGAGGTTATAGCACGCGTATA	0.547
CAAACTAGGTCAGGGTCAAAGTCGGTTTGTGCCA	4.34
AGAATGAGGTTATTTAGATCAGGGAATTGCGGTC	1.1
TAGCCTAGGTCATTGCGCCAGTATAGTACGCATC	1.15
GCGACTGGGGCAAAGTAGGTTACCATAAGGTTGG	-0.411
CCAACTAGGTCAAAGGTCAAAGTCGAGCCAACCA	4.39

###

System: PPARa:RXRa (NR concentration 270 nM, RXRa partner concentration 90 nM)
Test: PBM binding z-score (relative to random genomic background probes); higher = stronger binding; sequences stand for … in GC…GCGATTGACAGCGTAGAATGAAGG

Sequence Chain	PBM binding z-score
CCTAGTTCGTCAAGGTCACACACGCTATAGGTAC	4.36
CAAACTAGGTGAAGAGGTCAAAGTCCGCTTCCCG	5.95
AAAACGAGGGCACGCTGAGTTGATAGCAGAGTAG	2.42
CCGACTGGGGCAGAAAGGTTACCTTACCATCCGG	1.73
TCTTGTCGATCAATAGAGGTTAAGAAAGTGCGCT	1.97
CCTTACGGGTCACGAGGTTATACCACGACGAGCG	6.07
CCTACTGGGCCCAAAAGGTCATTGATGCCGATAA	4.61
TCTGCTAGGTGAACGATGGTCAGCTAATCTGCTA	0.449
GATACAGCGTCAAGGCCAGAGTACGCGTATTGAT	-0.514
TCTTGTAGATCAACAGGAGGTTAAAAAAGATCGA	1.54
CGTCCACGGTCAGCAGGTCAGTGAAAGCGACGTG	1.08
CCTGCTAGGTCATCGTCAGCTAATCTACAGTATG	3.5
TCGAGTAGGTTACCAATGGGGCATTCTGCTTTCT	1.33
TCATATAGGTAAACAGTTGAAAGTCCGTAAGTTA	1.76
TCTAGTTGGTCAATGGTCACACACTCGAAATGCG	1.74
TCATATAGGTAAACAGGTGAAAGGCCGTAAGTTA	3.2
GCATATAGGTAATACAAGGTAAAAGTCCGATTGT	0.669
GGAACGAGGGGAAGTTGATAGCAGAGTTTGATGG	0.0181
TCACATAGGTAAAAGGTGAAAGTCGGTGTGGTAA	4.37
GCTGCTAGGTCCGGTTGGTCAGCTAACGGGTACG	-0.619
CCTAGCAGGCCAATGTGGGTCACTCAAGGCTTGA	3.33
TGAATGAGGTTAAAGATCAGGTAACGTGGCGTCG	4.75
AGAATTAGGTTACCAAAGATCAGGGAAACGCTTG	2.9
GCTTGTAGATCAAGGATAAGAAAGACTAAGCTAA	-0.619
GATACAGGGTCAAGGCAAGAGTACGCGTATTGAT	6.03
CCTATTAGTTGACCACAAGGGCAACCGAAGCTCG	0.698
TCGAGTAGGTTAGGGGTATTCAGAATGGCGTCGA	1.66
TCTTGTAGATCAACAGGAAGTTAAGAAAGATCGA	0.364
CCGACTGGGGCAGAAAGGTTACCATCCCATCCGG	2.03
CGACCAAGGTCAGCAGGTCAGTGAAAGCGACGTG	4.85
TCTCGGAGGACACGAAGGTCAGAGCTTTCCAGAG	1.98
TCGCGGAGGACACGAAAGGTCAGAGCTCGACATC	3.59
GCGACTGGGCCATCAGCAGGTTACCATAACTTAA	0.242
AGAACGTGGGCAATGAGTTGATAGCACGGGTGGC	-0.601
TCGAGTAGGTTAGGGGCATTCAGAATGGCGTCGA	1.39
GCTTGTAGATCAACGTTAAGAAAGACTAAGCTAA	-0.124
CTCGACAGGTCGTGCTCAGGTGAGTATACCAAAC	1.59
GCTAGCATGCCATTTGGGTCACTCAATGACGGGC	1.05
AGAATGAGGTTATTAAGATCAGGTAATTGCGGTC	2.49
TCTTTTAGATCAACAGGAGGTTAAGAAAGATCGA	1.55
TTACCAAGGTGAGCTGAGTTCGTTGATCCAACTC	0.596
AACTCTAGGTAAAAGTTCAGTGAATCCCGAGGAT	4.2
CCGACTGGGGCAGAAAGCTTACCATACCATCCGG	-0.683
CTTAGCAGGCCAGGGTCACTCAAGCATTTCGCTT	3.33
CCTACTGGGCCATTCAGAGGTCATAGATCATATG	3.83
TCTGCTAGGTCAACAATGGTCAGCTAATCTGCTA	3.29
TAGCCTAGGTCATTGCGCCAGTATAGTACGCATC	3.48
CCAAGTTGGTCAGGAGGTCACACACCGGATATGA	4.43
CGTACTAGGTCAGAACAGGACAGTGAAGGATGAT	2.29
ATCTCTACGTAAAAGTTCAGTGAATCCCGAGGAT	0.835
CCGACTGGGGCAGAATGGTTACCATACCATCCGG	-0.355
